MEASURED_TARGET: Neu5Ac(a2-6)Gal(b1-4)GlcNAc(b1-6)[Gal(b1-3)GlcNAc(b1-3)]Gal(b1-4)Glc
MEASUREMENT_NOTES: glycan array binding signal (z-score within array); higher = stronger binding
TEST_PARAMETERS: glycan notation: IUPAC condensed, linker removed
Many of the other results were omitted from the sample, so the strongest signals are more common in it than they were.
Assign glycan array binding signal (z-score) to each entry below.
// response body must contain only the number

Asked: # return recorded glycan array binding signal (z-score) for input AFL6 (Aspergillus fumigatus), Q4WKJ1 (protein) MSFHLTAEDIRIEDGHRLVARLRNADGDLQDASIDLNTCLGNDNGHFQWDGVDFSHSAQDVHFAIEGGGQVPVLRAQLANQDGEFQDADVNLSERIENINGEFVFH
Given back: 0.854

Asked: Look up glycan array binding signal (z-score) of Wzz (Escherichia coli) (protein) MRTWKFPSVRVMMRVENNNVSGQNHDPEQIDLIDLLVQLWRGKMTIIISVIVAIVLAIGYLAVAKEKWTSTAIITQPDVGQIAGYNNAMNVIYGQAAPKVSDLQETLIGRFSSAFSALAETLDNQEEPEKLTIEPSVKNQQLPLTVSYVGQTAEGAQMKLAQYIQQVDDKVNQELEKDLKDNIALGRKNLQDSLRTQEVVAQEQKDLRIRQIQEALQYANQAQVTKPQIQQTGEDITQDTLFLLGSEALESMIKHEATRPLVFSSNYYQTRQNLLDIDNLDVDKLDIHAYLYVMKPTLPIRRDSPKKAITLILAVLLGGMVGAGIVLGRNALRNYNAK and report it.
Given back: -0.436
